Each entry below carries its reported Top (MFI).
target: cynomolgus LIV-1 (cynomolgus, UniProt A0A2K5WH46 30-741); experiment: FACS, HEK293/Cyno_LIV-1 cells
Sequence (A0A2K5WH46 entry or part of it): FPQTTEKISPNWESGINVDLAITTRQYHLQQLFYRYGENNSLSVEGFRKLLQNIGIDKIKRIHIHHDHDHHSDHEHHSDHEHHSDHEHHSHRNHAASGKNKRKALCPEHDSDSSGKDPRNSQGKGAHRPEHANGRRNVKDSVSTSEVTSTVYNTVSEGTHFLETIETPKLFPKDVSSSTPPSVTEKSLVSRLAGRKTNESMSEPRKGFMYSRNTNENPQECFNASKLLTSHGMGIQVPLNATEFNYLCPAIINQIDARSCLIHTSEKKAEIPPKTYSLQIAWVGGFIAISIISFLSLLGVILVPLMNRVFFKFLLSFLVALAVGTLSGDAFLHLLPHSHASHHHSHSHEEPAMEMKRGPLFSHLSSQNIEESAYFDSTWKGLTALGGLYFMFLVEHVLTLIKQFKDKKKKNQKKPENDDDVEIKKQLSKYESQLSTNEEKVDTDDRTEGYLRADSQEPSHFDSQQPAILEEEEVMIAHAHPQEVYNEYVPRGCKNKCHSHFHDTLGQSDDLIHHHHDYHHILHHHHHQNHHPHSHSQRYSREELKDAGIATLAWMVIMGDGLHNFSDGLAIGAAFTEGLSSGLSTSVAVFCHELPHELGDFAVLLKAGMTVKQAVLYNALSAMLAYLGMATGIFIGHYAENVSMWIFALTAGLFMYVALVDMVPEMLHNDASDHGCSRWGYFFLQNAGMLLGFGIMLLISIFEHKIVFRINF
Measurement Kind: Top (MFI)

>>> measurement("5D6B10.Z11 (antibody, V domains shown) VH: QVQLQESGPGLVKPSGTLSLTCAVSGFSLTTYGIHWVRQSPGKGLEWLGVIWTGGTTDYNAAFISRLTISKDKSKNQVSLKLSSVTAADTAVYYCARGPSSYWGQGTLVTVSS VL: EIVMTQSPATLSVSPGERATVSCKASQNVDTNVVWYQQKPGQSPRALIHSASYRYSGVPDRFSGSGSGTDFTLTISSLQSEDFAVYFCQQYNNYPWTFGQGTKVEIK")
18300
>>> measurement("5D6B10.Z4 (antibody, V domains shown) VH: QVQLVESGGGVVQPGRSLRLSCTVSGFSLTTYGIHWVRQSPGKGLEWLGVIWTGGTTDYNAAFISRLTISKDNSKSTLYFQMNSLRAEDTAVYYCARGPSSYWGQGTLVTVSS VL: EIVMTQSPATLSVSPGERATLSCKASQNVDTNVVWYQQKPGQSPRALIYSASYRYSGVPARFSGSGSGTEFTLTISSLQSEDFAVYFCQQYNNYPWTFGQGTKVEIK")
19800
>>> measurement("124H4D11.p2.z15 (antibody, V domains shown) VH: QVPLVQSGAEVVKPGASVKLSCKASGFNIKDYYMHWVKQAPGQGLEWIGWIDPENDDTEYDPKFQGRATMTADTSTSTAYLELSSLRSEDTAVYYCNARYYAFDYWGQGTTVTVSS VL: DVLMTQSPLSLPVTLGQPASISCRSSQSIVHSNANTYLEWYLQRPGQSPKLLIYKVSNRFSGVPDRFSGSGSGTEFTLKISRVEAEDLGVYYCFQGSQVPPTFGGGTKLEIK")
6910
>>> measurement("124H4D11.p2.z5 (antibody, V domains shown) VH: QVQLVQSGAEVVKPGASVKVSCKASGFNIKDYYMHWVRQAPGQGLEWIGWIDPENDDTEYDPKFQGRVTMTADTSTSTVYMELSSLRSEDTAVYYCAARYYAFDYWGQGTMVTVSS VL: DVLMTQSPLSLPVTLGQPASISCRSSQSIVHSNANTYLEWYLQRPGQSPKLLIYKVSNRFSGVPDRFSGSGSGTEFTLKISRVEAEDLGVYYCFQGSQVPPTFGGGTKLEIK")
8070
>>> measurement("5D6B10.Z7 (antibody, V domains shown) VH: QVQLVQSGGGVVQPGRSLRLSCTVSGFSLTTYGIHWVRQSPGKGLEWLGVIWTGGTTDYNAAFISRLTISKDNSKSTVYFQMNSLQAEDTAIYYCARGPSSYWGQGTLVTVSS VL: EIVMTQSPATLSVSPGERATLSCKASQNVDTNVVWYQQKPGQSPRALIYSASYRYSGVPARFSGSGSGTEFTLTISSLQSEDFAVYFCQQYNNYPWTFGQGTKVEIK")
20400
